Measured values drawn from PubChem BioAssay for this set.

Target: Streptavidin (Streptomyces avidinii) (UniProt P22629)
Sequence (P22629 whole entry, looked up): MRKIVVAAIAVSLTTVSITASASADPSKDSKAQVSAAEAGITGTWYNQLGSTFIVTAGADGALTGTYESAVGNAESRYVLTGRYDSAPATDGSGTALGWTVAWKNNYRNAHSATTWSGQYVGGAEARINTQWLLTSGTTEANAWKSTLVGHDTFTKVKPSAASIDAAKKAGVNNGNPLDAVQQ
Assay: streptavidin binders on small-molecule microarray, primary screen, artefact control for SMM compound annotation, biophysical, 635/667 nm fluorescence (AID 1147);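 further: signal reflects streptavidin binding to arrayed compounds as a control protein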
Settings: streptavidin binding, higher = more signal
Consider the following compounds; for each one, report its composite z-score.
One number for each entry.

IN: Field request: composite z-score | item: COC(=O)C(CC#Cc1ccc2c(c1)[C@]1(C(=O)N2)[C@H](C(=O)NC[C@H](O)c2ccccc2)[C@H]2C(=O)O[C@H](c3ccccc3)[C@H](c3ccccc3)N2[C@@H]1c1ccc(OCCO)cc1)C(=O)OC
OUT: 2.55

IN: Now try CCCCC=C[C@@H](NC(=O)c1ccco1)c1ccccc1 .
OUT: 0.889

IN: Now try COC(=O)[C@@]1(Cc2ccc(OC)cc2)[C@H]2c3cc(C(=O)N(C)C)n(Cc4c(OC)[nH]cc(C)c4=O)c3C[C@H]2CN1C(=O)c1ccccc1 .
OUT: -0.0748

IN: Now try C=C[C@@H](COC(C)=O)N(Cc1ccc([N+](=O)[O-])cc1)S(=O)(=O)c1ccc(Br)cc1 .
OUT: 0.861

IN: Now try CCCNC(=O)[C@@H]1c2ccccc2C(=O)N(Cc2ccccc2)[C@H]1c1ccc(CO)cc1 .
OUT: 0.624

Please supply composite z-score for each of the following items, keeping them in order.
1. COC(=O)C1=CC(CCCO)=CC(C2CC2)N(Cc2sc3ccccc3c2Cl)C=C1C(=O)OC (stereo not drawn)
2. C=C(CCCC)C(=O)CC[C@H](OC(=O)c1cccnc1)c1cccc(OCCO)c1
3. O=C(OCCF)C1=CCC(c2cccc(Cl)c2)O1 (stereo not drawn)

OUT:
1. 2.17
2. 0.0158
3. 0.112

###

Test: binders from COS7 lysate, DM2A8 probe, primary screen, torsin A project, cell lysate, small-molecule microarray, fluorescence 635/667 (AID 1065)
Conditions: higher = more signal, COS7 lysate expressing mutant human TOR1A
// map composite z-score to label using bin A: < -0.1; bin B: ≥ -0.1 and < 0.5; bin C: ≥ 0.5

Reference set (4 entries):
IN: Into which category would you place C=C[C@H](C)[C@@H](O)c1ccc(O)c2ccccc12 ?
OUT: bin B

IN: Now try O=C/C=C/c1ccc(Cl)cc1 .
OUT: bin A

IN: Now try CC(=O)C1=CCC(c2ccccc2)N(S(=O)(=O)c2ccc(C)cc2)C1 (configuration not stated) .
OUT: bin B

IN: Now try CN1CCC(CCCO)=CC1c1ccc(CN2CCCC2)cc1 (configuration not stated) .
OUT: bin C

---
IN: Into which category would you place CC(C)CNC(=O)[C@@]1(c2ccc([N+](=O)[O-])cc2)CC(=O)N(CC23CC4CC(CC(C4)C2)C3)[C@@H]1c1ccc(CO)cc1I ?
OUT: bin C

###

System: Neuregulin-1 EGF-like domain
Assay: binders of neuregulin-1 EGF-like domain, primary screen, biochemical, small-molecule microarray, 635 nm fluorescence (AID 1081);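 further: binding of the protein to compounds printed on small-molecule microarray slides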
Settings: small-molecule microarray binding, higher = more signal
Decision: composite z-score compared against 1; not below it gives yes, below it gives no.

Reference set (5 entries):
IN: Does composite z-score meet or surpass 1 for CN(C)C(=O)[C@]1(CCC(=O)OC(C)(C)C)N=C(c2ccc(OCCCO)cc2)O[C@@H]1c1ccccc1N=[N+]=[N-] ?
OUT: yes

IN: Now try CCOC(=O)C1=CCC(c2ccc([N+](=O)[O-])cc2)N(S(=O)(=O)c2ccc(C)cc2)C1 (configuration not stated) .
OUT: no

IN: Now try C=CCOC(=O)[C@H]1[C@@H]2C(=O)O[C@@H](c3ccccc3)[C@@H](c3ccccc3)N2[C@@H](c2ccc(OCCOC(=O)[C@@H]3C[C@@H]4C(=O)N5CCC[C@H]5C(=O)N4[C@@H]3c3ccc(O)cc3)cc2)[C@]12C(=O)Nc1ccccc12 .
OUT: yes

IN: Now try C=C[C@@H](COC(C)=O)N(Cc1ccc([N+](=O)[O-])cc1)S(=O)(=O)c1ccc(Br)cc1 .
OUT: yes

IN: Now try CC(C)NC(=O)[C@@H]1c2ccccc2C(=O)N(Cc2ccccc2)[C@H]1c1ccc(CO)cc1 .
OUT: yes

---
IN: Does composite z-score meet or surpass 1 for C=CCN1C(=O)[C@]2(O[C@H](CCO)[C@@H]([Si](C)(C)c3ccc(OC)cc3)[C@@H]2C)c2cc(NC(=O)[C@H](C)O)ccc21 ?
OUT: yes

IN: Now try C=CCOC(=O)[C@@H]1[C@H]2C(=O)O[C@H](c3ccccc3)[C@H](c3ccccc3)N2[C@H](c2ccc(OCCOC(=O)[C@@H]3C[C@@H]4C(=O)NCC(=O)N4[C@@H]3c3cccc(OCCO)c3)cc2)[C@@]12C(=O)Nc1ccc(I)cc12 .
OUT: yes

IN: Now try O=C/C=C/c1ccc(Cl)cc1 .
OUT: no

IN: Now try CCOC(=O)C[C@H]1[C@H](OC(=O)c2ccc(-c3ccccc3)cc2)[C@@H](NC(=O)Cc2ccc(OC)cc2)c2cc(OCCCO)ccc2N1C(=O)c1ccc2ccccc2n1 .
OUT: no

IN: Now try O=c1cccc(C=Cc2ccccc2)o1 .
OUT: no

IN: Now try [N-]=[N+]=Nc1ccccc1[C@H]1OC(c2ccc(OCCCO)cc2)=N[C@@]1(CCS(=O)(=O)c1ccccc1)C(=O)O .
OUT: no
